Listed below: AIRE transcriptional activation functional score values for each entry.
B1: library; numbered along this chain (parent)
chain: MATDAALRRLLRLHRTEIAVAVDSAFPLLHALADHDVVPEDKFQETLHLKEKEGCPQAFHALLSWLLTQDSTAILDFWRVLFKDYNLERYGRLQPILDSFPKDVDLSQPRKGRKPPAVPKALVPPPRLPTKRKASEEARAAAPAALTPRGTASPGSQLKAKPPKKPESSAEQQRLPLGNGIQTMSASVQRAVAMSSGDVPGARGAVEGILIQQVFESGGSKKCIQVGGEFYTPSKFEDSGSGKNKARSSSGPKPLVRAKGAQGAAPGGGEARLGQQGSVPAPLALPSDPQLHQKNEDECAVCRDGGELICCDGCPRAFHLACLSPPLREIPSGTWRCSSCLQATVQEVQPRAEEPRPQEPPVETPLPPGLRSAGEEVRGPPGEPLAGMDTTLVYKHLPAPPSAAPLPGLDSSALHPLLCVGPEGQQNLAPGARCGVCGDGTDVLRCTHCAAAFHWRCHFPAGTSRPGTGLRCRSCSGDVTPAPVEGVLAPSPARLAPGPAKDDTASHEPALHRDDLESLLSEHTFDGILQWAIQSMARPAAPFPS

Variants of: B1
test: AIRE transcriptional activation functional score (insulin promoter-GFP; nonsense median 0, synonymous median 1) (normalised score); higher = higher AIRE activity (more reporter activation)
condition_set: with insulin promoter-GFP reporter in HEK293
Kindly provide the number alone.

D103I ... 0.368

Recorded AIRE transcriptional activation functional score of L366D , please. 0.846

Consider next the variant G274W in the same way. 1.46

Consider next the variant P407I in the same way. 1.43

Consider next the variant L62C in the same way. 0.584
